All values here come from patent US9249145B2.

- Tested Target: Jak2 (a.a. 828-1132) (Homo sapiens, UniProt O60674)
- Construct: Jak2 (a.a. 828-1132); His tag (N); made in house; host or cells: insect cells (baculovirus)
- Sequence (O60674 828-1132): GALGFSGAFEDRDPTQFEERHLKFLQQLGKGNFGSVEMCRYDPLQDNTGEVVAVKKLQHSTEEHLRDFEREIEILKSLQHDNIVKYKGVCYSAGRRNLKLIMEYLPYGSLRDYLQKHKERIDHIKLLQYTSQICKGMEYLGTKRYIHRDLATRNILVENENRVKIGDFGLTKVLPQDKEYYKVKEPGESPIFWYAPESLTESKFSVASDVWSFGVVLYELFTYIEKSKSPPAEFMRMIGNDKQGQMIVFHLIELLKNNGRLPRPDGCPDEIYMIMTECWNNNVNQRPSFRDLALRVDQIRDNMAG
- Method Notes: In vitro JAK kinase assay (HTRF, phosphorylation of biotinylated peptide), JAK2
- Type: biochemical
- Recorded Conditions: 1 mM ATP; Examples 92-162; read-out: JAK2 IC50 (nM) @ 1 mM ATP
Endpoint Name: IC50

These solved cases illustrate the format of a correct answer.
CCC(CN1CCN(S(=O)(=O)c2cn(C)c(C)n2)CC1)n1cc(-c2ncnc3[nH]ccc23)cn1 (stereo not shown) : 50 to 100 nM
Cc1c(Nc2ccc(F)cc2F)ncnc1N1CCC(C(CC#N)n2cc(-c3ncnc4[nH]ccc34)cn2)CC1 (stereo not shown) : > 100 nM
N#CCC(CN1CCCN(C(=O)c2ccc(O)cc2F)CC1)n1cc(-c2ncnc3[nH]ccc23)cn1 (stereo not shown) [Example 97, bis(trifluoroacetate)] : > 100 nM
CCC(CN1CCN(C(=O)c2ccc(Cl)cc2F)CC1)n1cc(-c2ncnc3[nH]ccc23)cn1 (stereo not shown) : 20 to 50 nM
N#CCC(CN1CCN(C(=O)c2ccc(C#N)cc2F)CC1C(F)F)n1cc(-c2ncnc3[nH]ccc23)cn1 (single isomer, unassigned) [Example 159—peak 1] : > 100 nM

Q: # input compound: CC(CN1CCN(S(=O)(=O)c2ccccc2C#N)CC1)n1cc(-c2ncnc3[nH]ccc23)cn1 (stereo not shown) ; wanted: its IC50
Result: > 100 nM

Q: Any idea what its IC50 is? The compound is CCC(CN1CCN(S(=O)(=O)c2ccc(F)cc2)CC1)n1cc(-c2ncnc3[nH]ccc23)cn1 (stereo not shown)
Result: 50 to 100 nM
